Activity overview
System: Anaerococcus prevotii
Assay: Antimicrobial activity against Anaerococcus prevotii assessed as percent resistant isolates after 48 hrs by agar dilution method
Format: functional

These solved cases illustrate the format of a correct answer.
C[C@@H](O)[C@H]1C(=O)N2C(C(=O)O)=C(S[C@@H]3CN[C@H](C(=O)N(C)C)C3)[C@H](C)[C@H]12 [MEROPENEM] : 0%
O=C(N[C@H](CO)[C@H](O)c1ccc([N+](=O)[O-])cc1)C(Cl)Cl [CHLORAMPHENICOL] : 0%
CCN1CCN(C(=O)N[C@@H](C(=O)N[C@@H]2C(=O)N3[C@@H]2SC(C)(C)[C@@H]3C(=O)O)c2ccccc2)C(=O)C1=O [PIPERACILLIN] : 0%
C[C@@H](O)[C@H]1C(=O)N2C(C(=O)O)=C(SCCNC=N)C[C@H]12 [IMIPENEM ANHYDROUS] : 0%
CO[C@@]1(NC(=O)C2SC(=C(C(N)=O)C(=O)O)S2)C(=O)N2C(C(=O)O)=C(CSc3nnnn3C)CS[C@@H]21 (some centres undefined) [CEFOTETAN] : 0%

(Q) Output measured Activity for this item: COc1c(N2C[C@@H]3CCCN[C@@H]3C2)c(F)cc2c(=O)c(C(=O)O)cn(C3CC3)c12 [MOXIFLOXACIN]
(A) 13%

All figures here come from ChEMBL document CHEMBL1671716.
